Target: AAK1 (amino acids T27-A365) (Homo sapiens, UniProt Q2M2I8)
Construct: against AAK1 (amino acids T27-A365); 6His (N, cleaved yes)
Assay: AAK1 pSENs assay
Type: biochemical
Settings: class symbols; read-out: AAK1 pSENs: EIC50
OBSERVATION TYPE: IC50

QUERY: Item O=C(O[C@H]1CO[C@H]2OCC[C@H]21)N1CCN(c2ccn3ncc(-c4ccccc4OC4CC4)c3n2)CC1 [Compound I-68] has what recorded IC50?
RESULT: 51 to 150 nM

QUERY: Request: O=C1NCC[C@@H]1OC(=O)N1CCN(c2ccn3ncc(-c4cccnc4OC4CC4)c3n2)CC1 [Compound I-24]
RESULT: 51 to 150 nM

QUERY: COC(=O)N1CC(Oc2ncccc2-c2cnn3ccc(NCCN(C)C(=O)OC(C)(C)C)nc23)C1 [Compound I-64] ?
RESULT: 1 to 50 nM

QUERY: How about C[C@@H]1CN(c2ccn3ncc(-c4cccnc4OC4CC4)c3n2)CCN1C(=O)O[C@@H]1CNC(=O)C1 [Compound I-39] ?
RESULT: 1 to 50 nM

QUERY: Also check CC(C)(C)OC(=O)NCCNc1nc2c(-c3cccnc3OC3CC3)cnn2cc1F [Compound I-124]
RESULT: 51 to 150 nM

QUERY: Cool, now CN1C[C@H](OC(=O)N2CCN(c3ccn4ncc(-c5cccnc5OC5CC5)c4n3)CC2)CC1=O [Compound I-94]
RESULT: 1 to 50 nM

QUERY: One more compound: CN1C[C@@H](OC(=O)N2CCN(c3ccn4nccc4n3)CC2)CC1=O [Compound I-97]
RESULT: > 1500 nM

QUERY: Subsequent entry: CN1C[C@@H](OC(=O)N2CCN(c3nc4c(-c5cccnc5OC5CCOC5)cnn4cc3F)CC2)CC1=O (some centres unmarked) [Compound I-120]
RESULT: 51 to 150 nM

QUERY: One more compound: COC(=O)N1CC(Oc2ncccc2-c2cnn3ccc(N4CCN(C(=O)O[C@@H]5CC(=O)N(C)C5)CC4)nc23)C1 [Compound I-83]
RESULT: 1 to 50 nM

QUERY: Could you do the same for COc1cnc(OC2CC2)c(-c2cnn3ccc(N4CCN(C(=O)O[C@H]5CC(=O)N(C)C5)CC4)nc23)c1 [Compound I-87] , please?
RESULT: 1 to 50 nM

QUERY: Another compound to check: O=C1C[C@@H](OC(=O)N2CCN(c3ccn4ncc(-c5cccnc5OC5CC5)c4n3)CC2)CN1 [Compound I-10]
RESULT: 1 to 50 nM

QUERY: Cool, now CC1(OC(=O)N2CCN(c3ccn4ncc(-c5cccnc5OC5CC5)c4n3)CC2)COC1 [Compound I-2]
RESULT: 1 to 50 nM

QUERY: Moving on to CN(CCNc1ccn2ncc(-c3cccnc3OC3CC3)c2n1)C(=O)O[C@@H]1CNC(=O)C1 [Compound I-60]
RESULT: 51 to 150 nM

QUERY: Another compound: O=C1C[C@H](OC(=O)N2CCN(c3ccn4ncc(-c5cccnc5OC5CC5)c4n3)CC2)CN1CCOCc1ccccc1 [Compound I-37]
RESULT: 1 to 50 nM

QUERY: Param item: COc1ncccc1-c1cnn2ccc(N3CCN(C(=O)O[C@H]4CO[C@H]5OCC[C@H]54)CC3)nc12 [Compound I-65]
RESULT: 1 to 50 nM

QUERY: Continue with CC(C)(C)OC(=O)N1CCN(c2ccn3ncc(Cl)c3n2)CC1 [Compound I-100]
RESULT: 501 to 1500 nM

QUERY: Now the compound O=C1C[C@H](OC(=O)N2CCN(c3ccn4ncc(-c5cccnc5OC5CC5)c4n3)C[C@H]2C(=O)O)CN1 [Compound I-41-4C]
RESULT: > 1500 nM

QUERY: Similarly, CC1(OC(=O)N2CCN(c3ccn4ncc(-c5cccnc5OCC5COC5)c4n3)CC2)COC1 [Compound I-20] ?
RESULT: 151 to 500 nM

QUERY: Now the compound CC(C)(C)OC(=O)N1CCN(c2ccn3ncc(-c4cccnc4O)c3n2)CC1 [Compound I-102]
RESULT: 1 to 50 nM

QUERY: For CN(CCNc1ccn2ncc(-c3cccnc3OC3CN(C(=O)OC(C)(C)C)C3)c2n1)C(=O)OC(C)(C)C [Compound I-62] then?
RESULT: 1 to 50 nM

QUERY: What would you report for CN(CCNc1ccn2ncc(-c3cccnc3OC3CC3)c2n1)C(=O)O[C@]1(C)CCNC1 [Compound I-61] ?
RESULT: 1 to 50 nM

QUERY: Field entry: COc1ccccc1-c1cnn2ccc(N3CCN(C(=O)O[C@H]4CO[C@H]5OCC[C@H]54)CC3)nc12 [Compound I-69]
RESULT: 1 to 50 nM

QUERY: Try the compound C#C[C@]1(OC(=O)N2CCN(c3ccn4ncc(-c5cccnc5OC5CC5)c4n3)CC2)CCNC1 [Compound I-15]
RESULT: 1 to 50 nM

QUERY: Next entry: CN1C[C@@H](OC(=O)N2CCN(c3ccn4ncc(-c5cccnc5OC5CC5)c4n3)CC2)CC1=O [Compound I-34]
RESULT: 1 to 50 nM

QUERY: Entry CN1C[C@@H](OC(=O)N2CCN(c3nc4c(-c5cccnc5OC5CC5)cnn4cc3F)CC2)CC1=O [Compound I-109] please
RESULT: 1 to 50 nM

QUERY: What would you report for COC(=O)N1CC(Oc2ncccc2-c2cnn3ccc(N4CCN(C(=O)O[C@@H]5CC(=O)N(CCOCc6ccccc6)C5)CC4)nc23)C1 [Compound I-84-6] ?
RESULT: 151 to 500 nM

###

Target: AAK1 (Homo sapiens, UniProt Q2M2I8)
Sequence (Q2M2I8 whole entry): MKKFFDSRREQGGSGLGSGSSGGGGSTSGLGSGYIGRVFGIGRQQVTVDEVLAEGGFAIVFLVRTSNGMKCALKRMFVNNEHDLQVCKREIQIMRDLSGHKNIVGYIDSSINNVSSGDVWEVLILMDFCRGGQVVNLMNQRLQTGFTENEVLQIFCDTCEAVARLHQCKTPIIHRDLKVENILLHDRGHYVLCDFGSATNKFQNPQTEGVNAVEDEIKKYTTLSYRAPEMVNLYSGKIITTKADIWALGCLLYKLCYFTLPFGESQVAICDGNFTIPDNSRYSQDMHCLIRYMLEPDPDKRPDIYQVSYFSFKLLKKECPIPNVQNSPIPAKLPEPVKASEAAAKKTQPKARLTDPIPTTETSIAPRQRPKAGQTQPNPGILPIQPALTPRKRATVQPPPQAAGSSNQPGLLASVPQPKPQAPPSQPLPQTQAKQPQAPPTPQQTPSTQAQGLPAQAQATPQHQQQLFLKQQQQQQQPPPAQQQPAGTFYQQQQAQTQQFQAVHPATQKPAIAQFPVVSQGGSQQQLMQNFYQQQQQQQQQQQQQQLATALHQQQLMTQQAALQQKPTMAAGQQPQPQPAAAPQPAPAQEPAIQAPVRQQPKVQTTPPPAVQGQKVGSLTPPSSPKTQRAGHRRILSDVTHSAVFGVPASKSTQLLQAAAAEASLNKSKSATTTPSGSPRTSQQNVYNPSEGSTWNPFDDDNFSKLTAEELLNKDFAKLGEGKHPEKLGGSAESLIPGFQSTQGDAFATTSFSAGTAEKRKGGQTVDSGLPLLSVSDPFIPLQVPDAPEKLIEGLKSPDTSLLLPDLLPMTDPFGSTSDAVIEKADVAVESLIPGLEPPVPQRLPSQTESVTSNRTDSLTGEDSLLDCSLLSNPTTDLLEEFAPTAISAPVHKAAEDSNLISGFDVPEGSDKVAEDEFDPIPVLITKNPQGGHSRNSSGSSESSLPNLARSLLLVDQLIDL
Experiment: pAP2M1 cell-based assay (in-cell Western)
Settings: Hela cells co-transfected with AP2M1 and AAK1, 3 hr treatment; class symbols; read-out: AAK1 In-cell Western: IC50
pIC50: −log10 of the molar value.
Exercise: for every item that follows, state its recorded pIC50.

QUERY: Record request: pIC50 value, item CN1C[C@@H](OC(=O)N2CCN(c3ccn4ncc(-c5cccnc5OC5CC5)c4n3)CC2)CC1=O [Compound I-34]
RESULT: 6.30 to 6.82

QUERY: Could you do the same for C[C@@]1(OC(=O)N2CCN(c3ccn4ncc(-c5cccnc5OC5CC5)c4n3)CC2)CCNC1 [Compound I-14] , please?
RESULT: 6.30 to 6.82

QUERY: Repeat with CN1C[C@@H](OC(=O)N2CCN(c3nc4c(-c5cccnc5OC5CCCCC5)cnn4cc3F)CC2)CC1=O [Compound I-123]
RESULT: < 5.82

QUERY: What about O=C1C[C@H](OC(=O)N2CCN(c3ccn4ncc(-c5cccnc5OC5CC5)c4n3)CC2)CN1CCO [Compound I-38] ?
RESULT: < 5.82

QUERY: What do you have for O=C1C[C@H](OC(=O)N2CCN(c3ccn4ncc(-c5cccnc5OC5CC5)c4n3)C[C@H]2C(=O)O)CN1 [Compound I-41-4C] ?
RESULT: < 5.82

QUERY: Follow-up entry: C[C@@]1(OC(=O)N2CCN(c3ccn4ncc(-c5cccnc5OC5CC5)c4n3)CC2)CCN(CC(N)=O)C1 [Compound I-51]
RESULT: 6.30 to 6.82

QUERY: And what about the compound CC(C)(C)OC(=O)NCCNc1ccc2ncc(-c3cccnc3OC3CC3)n2n1 [Compound I-129] ?
RESULT: 5.82 to 6.30

QUERY: Quick one: C[C@@H]1CN(c2ccn3ncc(-c4cccnc4OC4CC4)c3n2)CCN1C(=O)O[C@@H]1CNC(=O)C1 [Compound I-39]
RESULT: 5.82 to 6.30

QUERY: What would you report for C#CC1(OC(=O)N2CCN(c3ccn4ncc(-c5cccnc5OC)c4n3)CC2)CCNC1 (stereo not drawn) [Compound I-9] ?
RESULT: 6.82 to 7.29

###

Molecular target: AAK1 (amino acids T27-A365) (Homo sapiens, UniProt Q2M2I8)
Construct: against AAK1 (amino acids T27-A365); 6His (N, cleaved yes)
Assay: AAK1 pSENs assay
Type: biochemical
Details: class symbols; read-out: AAK1 pSENs: EIC50
pIC50: −log10 of the molar value.
Assignment: determine reported pIC50 for the given compounds.

QUERY: Given C[C@@]1(OC(=O)N2CCN(c3ccn4ncc(-c5cccnc5OC5CC5)c4n3)CC2)CCN(CCO)C1 [Compound I-52] , state its recorded pIC50.
RESULT: 7.30 to 9.00

QUERY: Also check Cc1cn2ncc(-c3cccnc3OC3CC3)c2nc1N1CCN(C(=O)O[C@H]2CC(=O)N(C)C2)CC1 [Compound I-111]
RESULT: 5.82 to 6.30

QUERY: Same again, this time with O=C1C[C@H](OC(=O)N2CCN(c3ccn4ncc(-c5cccnc5OC5CC5)c4n3)CC2)CN1 [Compound I-11]
RESULT: 7.30 to 9.00
